Data origin, for the record: patent US20190225692A1

biological target: T1, HLA-A2/E6 (29-38) tetramer (human; HPV 16); assay: tetramer flow cytometry; transfected 1:1 CD4+ and CD4+/CD8+ Jurkat-derived cells;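 further: cell mixtures transiently transfected with TCR-encoding plasmids, analysed by flow cytometry 48 h later after HLA-A*02:01 E6 tetramer staining combined with anti-CD8 antibody co-staining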
T1 construct: also called E6(29-38) peptide-MHC tetramer; E6(29-38)-loaded tetramer
quantity-name: % cells in E6 tet-/CD8- quadrant (%)
Give a bare numeral; the unit % is implied.

Need % cells in E6 tet-/CD8- quadrant, item TCR 17 (codon optimized, cysteine modified version) (TCR, V domains shown) V domain 1: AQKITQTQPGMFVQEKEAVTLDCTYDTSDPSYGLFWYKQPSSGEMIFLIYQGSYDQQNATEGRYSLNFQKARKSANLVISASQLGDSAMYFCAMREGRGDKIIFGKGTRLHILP V domain 2: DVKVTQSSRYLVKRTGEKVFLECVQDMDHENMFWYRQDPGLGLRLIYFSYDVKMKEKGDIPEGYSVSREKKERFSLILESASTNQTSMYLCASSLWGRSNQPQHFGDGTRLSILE
34.8

Need % cells in E6 tet-/CD8- quadrant, item TCR 27 (codon optimized, cysteine modified version) (TCR, V domains shown) V domain 1: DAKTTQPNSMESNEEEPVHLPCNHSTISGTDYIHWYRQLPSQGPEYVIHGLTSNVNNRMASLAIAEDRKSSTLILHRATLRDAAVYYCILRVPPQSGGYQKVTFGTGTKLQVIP V domain 2: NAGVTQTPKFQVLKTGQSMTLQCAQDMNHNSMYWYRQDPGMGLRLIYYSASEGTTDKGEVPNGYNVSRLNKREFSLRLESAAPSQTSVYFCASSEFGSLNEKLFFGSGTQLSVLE
60.6

Need % cells in E6 tet-/CD8- quadrant, item TCR 20 (codon optimized, cysteine modified version) (TCR, V domains shown) V domain 1: AQKVTQAQTEISVVEKEDVTLDCVYETRDTTYYLFWYKQPPSGELVFLIRRNSFDEQNEISGRYSWNFQKSTSSFNFTITASQVVDSAVYFCALWTGANNLFFGTGTRLTVIP V domain 2: GAVVSQHPSRVICKSGTSVKIECRSLDFQATTMFWYRQFPKQSLMLMATSNEGSKATYEQGVEKDKFLINHASLTLSTLTVTSAHPEDSSFYICSASSLARRSYEQYFGPGTRLTVTE
22.6

Need % cells in E6 tet-/CD8- quadrant, item TCR 30 (codon optimized, cysteine modified version) (TCR, V domains shown) V domain 1: DAKTTQPPSMDCAEGRAANLPCNHSTISGNEYVYWYRQIHSQGPQYIIHGLKNNETNEMASLIITEDRKSSTLILPHATLRDTAVYYCIVRGTSVLQGNEKLTFGTGTRLTIIP V domain 2: EPEVTQTPSHQVTQMGQEVILRCVPISNHLYFYWYRQILGQKVEFLVSFYNNEISEKSEIFDDQFSVERPDGSNFTLKIRSTKLEDSAMYFCASSRQPSSGNTIYFGEGSWLTVVE
54.3

Need % cells in E6 tet-/CD8- quadrant, item TCR 29 (codon optimized, cysteine modified version) (TCR, V domains shown) V domain 1: AQKITQTQPGMFVQEKEAVTLDCTYDTSDQSYGLFWYKQPSSGEMIFLIYQGSYDEQNATEGRYSLNFQKARKSANLVISASQLGDSAMYFCAMRLNTGTASKLTFGTGTRLQVTL V domain 2: DGGITQSPKYLFRKEGQNVTLSCEQNLNHDAMYWYRQDPGQGLRLIYYSQIVNDFQKGDIAEGYSVSREKKESFPLTVTSAQKNPTAFYLCASSPWGRATNEQFFGPGTRLTVLE
17.9

Need % cells in E6 tet-/CD8- quadrant, item TCR 19 (codon optimized, cysteine modified version) (TCR, V domains shown) V domain 1: AQKITQTQPGMFVQEKEAVTLDCTYDTSDQSYGLFWYKQPSSGEMIFLIYQGSYDEQNATEGRYSLNFQKARKSANLVISASQLGDSAMYFCAMRENTGTASKLTFGTGTRLQVTL V domain 2: DVKVTQSSRYLVKRTGEKVFLECVQDMDHENMFWYRQDPGLGLRLIYFSYDVKMKEKGDIPEGYSVSREKKERFSLILESASTNQTSMYLCASSSWGQSTGEQYFGPGTRLTVTE
36

Need % cells in E6 tet-/CD8- quadrant, item TCR 26 (codon optimized, cysteine modified version) (TCR, V domains shown) V domain 1: AQKITQTQPGMFVQEKEAVTLDCTYDTSDQSYGLFWYKQPSSGEMIFLIYQGSYDEQNATEGRYSLNFQKARKSANLVISASQLGDSAMYFCAMRDARNNDMRFGAGTRLTVKP V domain 2: NAGVTQTPKFRVLKTGQSMTLLCAQDMNHEYMYWYRQDPGMGLRLIHYSVGEGTTAKGEVPDGYNVSRLKKQNFLLGLESAAPSQTSVYFCASSYYASGRNYEQYFGPGTRLTVTE
8.73

Need % cells in E6 tet-/CD8- quadrant, item TCR 16 (codon optimized, cysteine modified version) (TCR, V domains shown) V domain 1: KQEVTQIPAALSVPEGENLVLNCSFTDSAIYNLQWFRQDPGKGLTSLLLIQSSQREQTSGRLNASLDKSSGRSTLYIAASQPGDSATYLCAVRPANNNDMRFGAGTRLTVKP V domain 2: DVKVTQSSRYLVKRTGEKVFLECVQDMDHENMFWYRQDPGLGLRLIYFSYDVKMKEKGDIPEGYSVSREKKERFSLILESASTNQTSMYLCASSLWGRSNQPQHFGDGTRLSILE
26.7

Need % cells in E6 tet-/CD8- quadrant, item TCR 15 (codon optimized, cysteine modified version) (TCR, V domains shown) V domain 1: AQKITQTQPGMFVQEKEAVTLDCTYDTSDQSYGLFWYKQPSSGEMIFLIYQGSYDEQNATEGRYSLNFQKARKSANLVISASQLGDSAMYFCAMKPGGYNKLIFGAGTRLAVHP V domain 2: DAGVIQSPRHEVTEMGQEVTLRCKPISGHNSLFWYRQTMMRGLELLIYFNNNVPIDDSGMPEDRFSAKMPNASFSTLKIQPSEPRDSAVYFCASSLVGRSRTEQYFGPGTRLTVTE
24.8

Need % cells in E6 tet-/CD8- quadrant, item TCR 24 (codon optimized, cysteine modified version) (TCR, V domains shown) V domain 1: AQKITQTQPGMFVQEKEAVTLDCTYDTSDQSYGLFWYKQPSSGEMIFLIYQGSYDEQNATEGRYSLNFQKARKSANLVISASQLGDSAMYFCAMREGRGDSWGKLQFGAGTQVVVTP V domain 2: DVKVTQSSRYLVKRTGEKVFLECVQDMDHENMFWYRQDPGLGLRLIYFSYDVKMKEKGDIPEGYSVSREKKERFSLILESASTNQTSMYLCASSPFGRGSYEQYFGPGTRLTVTE
16

Need % cells in E6 tet-/CD8- quadrant, item TCR 28 (codon optimized, cysteine modified version) (TCR, V domains shown) V domain 1: RKEVEQDPGPFNVPEGATVAFNCTYSNSASQSFFWYRQDCRKEPKLLMSVYSSGNEDGRFTAQLNRASQYISLLIRDSKLSDSATYLCVVRGGGTSYGKLTFGQGTILTVHP V domain 2: DVKVTQSSRYLVKRTGEKVFLECVQDMDHENMFWYRQDPGLGLRLIYFSYDVKMKEKGDIPEGYSVSREKKERFSLILESASTNQTSMYLCASSLWGRSSGNTIYFGEGSWLTVVE
55.4
